The reported numbers originate from ChEMBL document CHEMBL1201862.

IC50 values, listed per item
# system tested: UniProtKB Q9HC16
# Sequence (Q9HC16 whole entry): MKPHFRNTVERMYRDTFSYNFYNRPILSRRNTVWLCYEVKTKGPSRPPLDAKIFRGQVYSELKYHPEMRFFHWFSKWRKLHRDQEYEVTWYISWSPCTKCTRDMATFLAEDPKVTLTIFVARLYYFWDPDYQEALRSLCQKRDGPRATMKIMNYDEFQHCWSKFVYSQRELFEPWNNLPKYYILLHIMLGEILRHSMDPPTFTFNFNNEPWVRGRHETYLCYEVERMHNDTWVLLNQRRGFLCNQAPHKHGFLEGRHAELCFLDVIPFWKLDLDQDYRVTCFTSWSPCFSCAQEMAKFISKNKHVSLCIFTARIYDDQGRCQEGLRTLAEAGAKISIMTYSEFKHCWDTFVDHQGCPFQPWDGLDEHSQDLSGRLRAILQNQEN
# measurement protocol: Dose Response confirmation of small molecule APOBEC3G DNA Deaminase Inhibitors via a fluorescence-based single-stranded DNA deaminase assay. [Related pubchem assays (depositor defined):AID493012, AID493028]
# Assay type: functional
The source made the active and inactive calls.

{"smiles representation": "Cc1cc(-c2nnc(S)n2/N=C/c2cccc(O)c2)[nH]n1", "IC50": "2.51 µM (active)"}
{"smiles representation": "O=S(=O)(c1ccc(=S)[nH]c1)N1CCOCC1", "IC50": "12.6 µM (active)"}
{"smiles representation": "Cc1nn(-c2ccccc2)c(C)c1/C=N/n1c(S)nnc1-c1ccncc1", "IC50": "2.75 µM (active)"}
{"smiles representation": "Sc1[nH]cnc2c3ccccc3nc1-2", "IC50": "3.65 µM (active)"}

---

# system tested: RNA-binding protein pos-1 (Caenorhabditis elegans, UniProt G5EF15)
# Sequence (G5EF15 whole entry, the tested form may be a part): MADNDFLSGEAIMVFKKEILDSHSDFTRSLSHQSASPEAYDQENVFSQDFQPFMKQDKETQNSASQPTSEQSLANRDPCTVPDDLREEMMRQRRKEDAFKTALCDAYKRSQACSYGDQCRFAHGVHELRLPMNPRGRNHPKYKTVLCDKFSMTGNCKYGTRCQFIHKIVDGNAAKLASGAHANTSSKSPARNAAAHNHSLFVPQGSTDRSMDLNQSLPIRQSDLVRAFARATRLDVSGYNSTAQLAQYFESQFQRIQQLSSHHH
# measurement protocol: disruptors of C. elegans POS-1 RNA interaction – biochemical, fluorescence polarization, dose response (AID 1964);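 further: purified POS-1 fused to maltose binding protein made in E. coli; potency of compounds blocking POS-1 binding to fluorescent RNA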
Active and inactive are the calls of the source.

{"compound": "COC(=O)C1CSc2[nH]c(=O)sc2C1c1ccccc1 (stereo not given)", "EC50": "7.13 µM (active)"}
{"compound": "O=C(O)c1ccc(-n2cccc2/C=C2/SC(=O)N(CC(=O)N3CCCC3)C2=O)cc1", "EC50": "89 µM (active)"}
{"compound": "COc1cc(OC)c(C2C(C#N)=C(N)OC3=C2C(=O)CC(C)(C)C3)cc1OC (stereo not given)", "EC50": "> 300 µM (not active)"}
{"compound": "COc1ccc(NC(=O)c2sc3nc(-c4cccnc4)ccc3c2N)cc1", "EC50": "40.6 µM (inconclusive)"}
{"compound": "Cc1cc(/C=C2\\C(=O)NC(=O)N(c3ccc(Cl)cc3)C2=O)c(C)n1C", "EC50": "63.5 µM (active)"}
{"compound": "COc1ccc2[nH]c3c(c2c1)CCNC3c1ccc([N+](=O)[O-])o1 (stereo not given)", "EC50": "5.82 µM (inconclusive)"}
{"compound": "COc1cc2c(cc1OC)C(c1ccc(-c3ccc(Cl)cc3Cl)o1)=NCC2", "EC50": "> 300 µM (not active)"}
{"compound": "CN1CCc2cc(O)cc3c2[C@H]1Cc1ccc(O)c(O)c1-3", "EC50": "5.41 µM (active)"}
{"compound": "COc1cccc(C(=O)NCC2CCN(c3ccc(S(=O)(=O)N4CCOCC4)cc3)CC2)c1", "EC50": "> 300 µM (not active)"}
{"compound": "Cc1n[nH]c(NNC(=O)c2ccccc2)c1[N+](=O)[O-]", "EC50": "15.2 µM (active)"}

---

# system tested: Endoribonuclease toxin MazF (Escherichia coli K-12, UniProt P0AE70)
# Sequence (P0AE70 whole entry): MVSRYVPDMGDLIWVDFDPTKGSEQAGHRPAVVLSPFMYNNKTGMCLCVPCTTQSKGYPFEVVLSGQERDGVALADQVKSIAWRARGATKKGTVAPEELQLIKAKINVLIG
# measurement protocol: substrate-only fluorescence increase artefacts – biochemical, single-stranded RNase substrate, counter-screen for MazEF activator project, dose response (AID 588502)
# Assay type: functional
Active and inactive are the calls of the source.
Labels: active, inactive

{"molecule": "Oc1ccc(/C=N/NC(=S)Nc2cccnc2)c(O)c1O", "label class": "inactive"}
{"molecule": "COc1cc2[nH]c(=O)n(Cc3ccc(C(=O)NC4CCCC4)cc3)c(=O)c2cc1OC", "label class": "inactive"}
{"molecule": "NC(=O)c1c(NC(=O)C2COc3ccccc3O2)sc2c1CCN(Cc1ccccc1)C2 (stereo unspecified)", "label class": "inactive"}
{"molecule": "C/C(=N\\NS(=O)(=O)c1ccc([N+](=O)[O-])cc1)c1c[nH]c2ccccc12", "label class": "inactive"}
{"molecule": "Cc1ccc(C(=O)Oc2cc(N)n(S(=O)(=O)c3ccc(F)cc3)n2)cc1", "label class": "active"}
{"molecule": "O=C(N/N=C/c1cccnc1)c1ccc(NC(=O)C(c2ccccc2)c2ccccc2)cc1", "label class": "inactive"}
